Ref: paper PMC12846378

# Test system: Vero E6 cells
measurement.type: CC50

[
  {
    "compound.structure.string": "CNC1=Nc2ccc(Cl)cc2C(c2ccc[nH]2)=NC1",
    "measurement.type": "CC50",
    "value.observed": "> 30 µM"
  }
]

---

# Test system: HEK293T cells

[
  {
    "compound.structure.string": "CNC1=Nc2ccc(Cl)cc2C(c2ccc[nH]2)=NC1",
    "CC50": "> 1000 nM"
  }
]

---

# Test system: rJUNV/GFP-P2A-NP
# assay.procedure: organism not typed
# Format: cell-based
# conditions: read-out: EC50

[
  {
    "compound.structure.string": "CNC1=Nc2ccc(Cl)cc2C(c2ccc[nH]2)=NC1",
    "value.unit": "µM",
    "EC50": 15.3
  }
]

---

# System: rJUNV/GFP-P2A-NP
# assay.procedure: organism not typed
# Type: cell-based
# conditions: A549
measurement.type: EC50 (µM)

[
  {
    "compound": "O=C(/C=C\\n1cnc(-c2cc(C(F)(F)F)cc(C(F)(F)F)c2)n1)NNc1ccccn1 [VE, verdinexor]",
    "measurement.type": "EC50",
    "value.observed": 0.036
  }
]

---

# Tested on: A549 cells

[
  {
    "compound": "CNC1=Nc2ccc(Cl)cc2C(c2ccc[nH]2)=NC1 [RO, Ro-24-7429]",
    "CC50": "> 20 µM"
  }
]

---

# System: rJUNV/GFP-P2A-NP
# assay.procedure: organism not typed
# Type: cell-based
measurement.type: EC50 (nM)

[
  {
    "compound": "O=C(/C=C\\n1cnc(-c2cc(C(F)(F)F)cc(C(F)(F)F)c2)n1)NNc1ccccn1 [VE, verdinexor]",
    "measurement.type": "EC50",
    "value.observed": 240
  }
]

---

# Tested on: rLCMV/GFP-P2A-NP
# Assay type: cell-based

[
  {
    "molecule": "O=C(/C=C\\n1cnc(-c2cc(C(F)(F)F)cc(C(F)(F)F)c2)n1)NNc1ccccn1 [VE, verdinexor]",
    "assayed.target": "rLCMV/GFP-P2A-NP",
    "EC50 / nM": 70
  }
]
